- subject.of.test: His-tagged recombinant human TrkA (Homo sapiens (Human), UniProt P04629)
- Sequence (P04629 440-796): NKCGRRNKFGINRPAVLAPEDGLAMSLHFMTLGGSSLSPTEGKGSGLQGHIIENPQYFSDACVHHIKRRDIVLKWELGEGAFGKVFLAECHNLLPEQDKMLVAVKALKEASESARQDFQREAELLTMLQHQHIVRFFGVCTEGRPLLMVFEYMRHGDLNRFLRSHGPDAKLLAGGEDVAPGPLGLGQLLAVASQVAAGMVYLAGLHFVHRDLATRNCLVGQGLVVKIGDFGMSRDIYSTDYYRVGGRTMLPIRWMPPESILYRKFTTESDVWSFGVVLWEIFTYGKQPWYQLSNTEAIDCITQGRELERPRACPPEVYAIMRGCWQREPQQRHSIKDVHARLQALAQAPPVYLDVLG
- method: TrkA LanthaScreen Eu Kinase Binding Assay
- study.conditions: averaged IC50; LanthaScreen binding assay of Example A; read-out: TrkA Enzyme IC50
IC50 overview

Use the examples below as a reference point.
[[record]]
compound = "COCCN1C[C@@H](NC(=O)Nc2c(C)c(-c3ccc(=O)n(C)c3)nn2-c2ccccc2)[C@H](c2cc(F)c(F)c(F)c2)C1"
subject_of_test = "His-tagged recombinant human TrkA (Homo sapiens (Human), UniProt P04629)"
endpoint_result = "< 100 nM"

[[record]]
compound = "COCCN1C[C@@H](NC(=O)Nc2c(C)c(-c3ccc(=O)n(C)c3)nn2-c2ccccc2)[C@H](c2ccc(F)c(Cl)c2)C1 (relative stereo)"
subject_of_test = "His-tagged recombinant human TrkA (Homo sapiens (Human), UniProt P04629)"
endpoint_result = "< 100 nM"


Please look at the following compound next.
// query Note down IC50 recorded for CCOc1ncc(-c2nn(-c3ccccc3)c(NC(=O)N[C@@H]3CN(CCOC)C[C@H]3c3cc(F)cc(F)c3)c2C)cn1
// result < 100 nM
